Target: Mu-type opioid receptor (Rattus norvegicus, UniProt P33535)
Sequence (P33535 whole entry): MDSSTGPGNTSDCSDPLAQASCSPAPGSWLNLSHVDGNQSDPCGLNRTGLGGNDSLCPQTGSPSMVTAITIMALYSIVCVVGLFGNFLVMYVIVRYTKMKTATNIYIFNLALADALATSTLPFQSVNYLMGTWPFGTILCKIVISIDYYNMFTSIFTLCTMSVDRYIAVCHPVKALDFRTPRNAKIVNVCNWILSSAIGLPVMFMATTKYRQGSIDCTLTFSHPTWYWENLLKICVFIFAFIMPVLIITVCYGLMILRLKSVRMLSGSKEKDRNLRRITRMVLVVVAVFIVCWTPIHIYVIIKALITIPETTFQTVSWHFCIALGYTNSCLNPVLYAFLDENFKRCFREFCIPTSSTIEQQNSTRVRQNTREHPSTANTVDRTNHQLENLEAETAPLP
Assign Ki to each entry below.
Give bare numbers, in nM.

RECORD_SMILES: COc1ccc(C[C@H](NC(=N)N)C(=O)N2CCC[C@@H]2C(=O)NCC(=O)N[C@@H](Cc2c[nH]c3ccccc23)C(=O)N[C@@H](Cc2ccc(Cl)cc2)C(N)=O)cc1
QUANTITATIVE_READOUT: 919

RECORD_SMILES: COc1ccc(C[C@H](N=C(N)N)C(=O)N2CCC[C@H]2C(=O)N[C@@H](Cc2c[nH]c3ccccc23)C(=O)N[C@@H](Cc2ccc(Cl)cc2)C(N)=O)cc1
QUANTITATIVE_READOUT: 538

RECORD_SMILES: COc1ccc(C[C@H](N=C(N)N)C(=O)N2CCC[C@H]2C(=O)N[C@@H](Cc2c[nH]c3ccccc23)C(=O)N[C@@H](Cc2ccccc2)C(N)=O)cc1
QUANTITATIVE_READOUT: 792

Next, consider the following molecule.
Entry COc1ccc(C[C@H](N=C(N)N)C(=O)N2CCC[C@@H]2C(=O)NCC(=O)N[C@@H](Cc2c[nH]c3ccccc23)C(=O)N[C@@H](Cc2ccccc2)C(N)=O)cc1 , tested on Mu-type opioid receptor (Rattus norvegicus, UniProt P33535), has a reported Ki of 1060

* * *

Test: Half life in mouse serum
Format: ADME, cell-free
OBSERVATION_TYPE: half-life (h)
One number for each entry, in h.

RECORD_SMILES: COc1ccc(C[C@H](NC(=N)N)C(=O)N2CCC[C@@H]2C(=O)NCC(=O)N[C@@H](Cc2c[nH]c3ccccc23)C(=O)N[C@@H](Cc2ccc(Cl)cc2)C(N)=O)cc1
half-life, h: 3.6
--
RECORD_SMILES: COc1ccc(C[C@H](N=C(N)N)C(=O)N2CCC[C@H]2C(=O)N[C@@H](Cc2c[nH]c3ccccc23)C(=O)N[C@@H](Cc2ccccc2)C(N)=O)cc1
half-life, h: 0.522
--
RECORD_SMILES: COc1ccc(C[C@H](N=C(N)N)C(=O)N2CCC[C@H]2C(=O)N[C@@H](Cc2c[nH]c3ccccc23)C(=O)N[C@@H](Cc2ccc(Cl)cc2)C(N)=O)cc1
half-life, h: 0.803

Let us examine a further case.
The molecule listed as COc1ccc(C[C@H](N=C(N)N)C(=O)N2CCC[C@@H]2C(=O)NCC(=O)N[C@@H](Cc2c[nH]c3ccccc23)C(=O)N[C@@H](Cc2ccccc2)C(N)=O)cc1 has a reported half-life of 2.75

* * *

Please provide measured pIC50 for the entries that follow.
Biological target: Delta-type opioid receptor (Mus musculus)
Sequence (P32300 whole entry): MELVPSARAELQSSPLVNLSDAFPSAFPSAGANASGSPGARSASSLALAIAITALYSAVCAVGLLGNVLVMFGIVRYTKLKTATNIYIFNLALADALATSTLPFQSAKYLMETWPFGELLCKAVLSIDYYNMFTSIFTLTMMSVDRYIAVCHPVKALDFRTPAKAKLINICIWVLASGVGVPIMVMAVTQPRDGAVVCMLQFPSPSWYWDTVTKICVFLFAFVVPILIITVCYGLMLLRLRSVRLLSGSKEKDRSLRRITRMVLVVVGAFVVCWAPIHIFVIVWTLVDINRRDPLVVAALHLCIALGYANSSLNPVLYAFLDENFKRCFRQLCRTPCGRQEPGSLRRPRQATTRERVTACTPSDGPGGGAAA
Assay: Agonist activity at delta opioid receptor in mouse vas deferens assessed as inhibition of electrically-induced twitches
One number for each entry, as −log10 of the molar value.

RECORD_SMILES: COc1ccc(C[C@H](N=C(N)N)C(=O)N2CCC[C@H]2C(=O)N[C@@H](Cc2c[nH]c3ccccc23)C(=O)N[C@@H](Cc2ccccc2)C(N)=O)cc1
QUANTITATIVE_READOUT: 5.87

The reported pIC50 of the molecule COc1ccc(C[C@H](N=C(N)N)C(=O)N2CCC[C@H]2C(=O)N[C@@H](Cc2c[nH]c3ccccc23)C(=O)N[C@@H](Cc2ccc(Cl)cc2)C(N)=O)cc1 was 5.89
